Data provenance: the supplement of paper PMC6555819

Test system: VDR:RXRa (NR concentration 270 nM, RXRa partner concentration 90 nM)
assay-details: PBM binding z-score (relative to random genomic background probes); higher = stronger binding; sequences stand for … in GC…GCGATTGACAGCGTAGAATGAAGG
Below: a set of entries, each annotated with reported PBM binding z-score.

# input So what's the measured PBM binding z-score for this one? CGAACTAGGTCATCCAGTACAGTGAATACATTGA
# output 5.08

# input Now the sequence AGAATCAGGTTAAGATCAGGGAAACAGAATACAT
# output 0.3

# input Now the sequence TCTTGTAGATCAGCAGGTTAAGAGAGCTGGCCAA
# output 0.132

# input Now the sequence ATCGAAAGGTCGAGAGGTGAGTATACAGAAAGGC
# output 2.73

# input Now the sequence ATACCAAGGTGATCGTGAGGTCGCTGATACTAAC
# output 2.39

----------
System: VDR:RXRa (NR concentration 270 nM, RXRa partner concentration 90 nM)
assay-details: PBM binding z-score (relative to random genomic background probes); higher = stronger binding; sequences stand for … in GC…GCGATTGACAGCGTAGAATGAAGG
Short version: PBM binding z-score at least 2 is Met, less is Not met.

>>> df
                       sequence_chain  group_label
0  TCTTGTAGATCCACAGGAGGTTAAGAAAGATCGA      Not met
1  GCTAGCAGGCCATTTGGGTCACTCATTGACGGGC      Not met
2  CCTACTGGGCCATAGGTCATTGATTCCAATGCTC          Met
3  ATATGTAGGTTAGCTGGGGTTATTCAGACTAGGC          Met
4  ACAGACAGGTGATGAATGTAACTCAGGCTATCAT      Not met

# input Entry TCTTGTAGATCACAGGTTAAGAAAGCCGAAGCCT : is its PBM binding z-score no less than 2?
# output Not met

# input Now the sequence AGTCAAAGTTCAGGACTAGGTAACGTAAAGCACG
# output Met

# input Now the sequence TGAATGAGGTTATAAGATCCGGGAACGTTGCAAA
# output Not met

# input Now the sequence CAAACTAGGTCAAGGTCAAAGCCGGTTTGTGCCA
# output Met

# input Now the sequence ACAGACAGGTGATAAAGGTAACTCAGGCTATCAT
# output Not met

# input Now the sequence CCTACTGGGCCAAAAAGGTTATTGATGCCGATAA
# output Not met

# input Now the sequence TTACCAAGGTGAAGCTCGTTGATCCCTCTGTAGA
# output Not met

# input Now the sequence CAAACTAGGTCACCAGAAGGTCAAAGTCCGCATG
# output Met

# input Now the sequence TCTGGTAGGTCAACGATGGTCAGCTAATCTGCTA
# output Met

# input Now the sequence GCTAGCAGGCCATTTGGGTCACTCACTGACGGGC
# output Not met

# input Now the sequence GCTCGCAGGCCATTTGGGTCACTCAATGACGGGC
# output Not met

# input Now the sequence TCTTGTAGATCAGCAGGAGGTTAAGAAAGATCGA
# output Not met

# input Now the sequence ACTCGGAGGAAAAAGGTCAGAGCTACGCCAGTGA
# output Met

# input Now the sequence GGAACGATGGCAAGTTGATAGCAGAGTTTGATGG
# output Not met

# input Now the sequence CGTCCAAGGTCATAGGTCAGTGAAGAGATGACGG
# output Met
